This collection of values is drawn from PubChem BioAssay (NCI).

- System: MALME-3M melanoma
- Procedure Details: NCI tumour cell line growth inhibition, 48 h
Readout Type: TGI

Some compounds with recorded TGI:
Problem: Form entry - test system: MALME-3M melanoma; read-out: TGI; compound: COC(=O)C(=O)C(C(=O)C(=O)Nc1cc([N+](=O)[O-])ccc1[N+](=O)[O-])c1nc2ccc(C(=O)c3ccccc3)cc2[nH]c1=O (centres undefined)
Result: > 100 µM

Problem: Form entry - test system: MALME-3M melanoma; read-out: TGI; compound: COC(=O)C1C(=O)O[C@@H](c2ccc(OC)cc2OC)C1C(=O)OC (some centres undefined)
Result: > 100 µM

Problem: Form entry - test system: MALME-3M melanoma; read-out: TGI; compound: `COc1ccc2c(c1)[n+]([O-])c(-c1nc3ccccc3s1)c(N)[n+]2[O-]`
Result: > 100 µM

Problem: Form entry - test system: MALME-3M melanoma; read-out: TGI; compound: `Cc1ccc(S(=O)(=O)n2cc(C(=O)C(=O)Nc3ccncc3)c3ccccc32)cc1`
Result: > 100 µM

Problem: Form entry - test system: MALME-3M melanoma; read-out: TGI; compound: `O=C(Cn1ccnc1[N+](=O)[O-])NCC(F)(F)C(F)(F)F`
Result: > 100 µM

Problem: Form entry - test system: MALME-3M melanoma; read-out: TGI; compound: `c1ccc2cc(Cn3c(-c4ccc5ccccc5c4)[n+](Cc4ccc5ccccc5c4)c4ccccc43)ccc2c1`
Result: 0.649 µM

Further cases:
Problem: Form entry - test system: MALME-3M melanoma; read-out: TGI; compound: `CCCCCCCCCCCCNC1(C)CNCCCNCCNCCCNC1`
Result: 3.47 µM

Problem: Form entry - test system: MALME-3M melanoma; read-out: TGI; compound: O=S1c2ccc(Cl)cc2CC(SSC2Cc3cc(Cl)ccc3S(=O)c3ccccc32)c2ccccc21 (centres undefined)
Result: > 100 µM

Problem: Form entry - test system: MALME-3M melanoma; read-out: TGI; compound: CC1(C)C2CCC13C(=O)C1OC3(C2)C2C(=O)c3c(O)ccc(O)c3C(=O)C12 (centres undefined)
Result: 50.6 µM

====

- Tested on: HT29 colon
- Procedure Details: NCI tumour cell line growth inhibition, 48 h
Reported TGI values are given for each entry in this list.

Some molecules with recorded TGI:
Problem: Form entry - test system: HT29 colon; read-out: TGI; molecule: `O=C(O)CC1(C(=O)O)CCCCC1`
Result: > 100 µM

Problem: Form entry - test system: HT29 colon; read-out: TGI; molecule: `O=C(O)Cc1[nH]cnc1C(=O)O`
Result: > 100 µM

Problem: Form entry - test system: HT29 colon; read-out: TGI; molecule: Cc1c(Cl)ccc2c1NC(=O)C2(O)C1Cc2ccccc2C1=O (stereo not drawn)
Result: > 100 µM

Problem: Form entry - test system: HT29 colon; read-out: TGI; molecule: CC(C)C(Cl)CC/C(CBr)=C(\Cl)CCl (stereo not drawn)
Result: 11.7 µM

Problem: Form entry - test system: HT29 colon; read-out: TGI; molecule: `CCO/C(O)=C(/C(=N)N1CCCC1)C(=O)Nc1ccc(Cl)cc1`
Result: > 100 µM

Further cases:
Problem: Form entry - test system: HT29 colon; read-out: TGI; molecule: `Nc1nccc(Nc2ccc(S(N)(=O)=O)cc2)n1`
Result: > 100 µM

====

- Tested on: UACC-62 melanoma
- Procedure Details: NCI tumour cell line growth inhibition, 48 h; in the data active = GI50 below about 0.43 µM; inactive = the rest
Pick from 1.0 for active, 0.0 for inactive when you respond.

Problem: How did this test come out for `CCCC(=O)NNc1[nH]c(-c2ccc(OC)cc2)cc1C(=O)OCC` ?
Result: 0.0

Problem: How did this test come out for `C#C[C@@]1(O)[C@@H](CO)O[C@@H](n2cc(F)c3c(N)ncnc32)[C@@H]1O` ?
Result: 1.0

Problem: How did this test come out for `COc1ccc(-c2nc(-c3nc4cc(C)c(C)cc4[nH]3)cc3c2[nH]c2ccccc23)cc1` ?
Result: 0.0

Further cases:
Problem: How did this test come out for `CCN(CC)CCOc1cc2c(C(=O)OC)c(C)oc2cc1C(C)=O` ?
Result: 0.0

Problem: How did this test come out for `CCOn1cc(C2=C(c3c[nH]c4ccccc34)C(=O)NC2=O)c2ccccc21` ?
Result: 1.0

Problem: How did this test come out for `Cc1ccc(C(=O)NC2CCCCC2)cc1-c1ccc(C(=O)NCC2CC2)cc1` ?
Result: 0.0

Problem: How did this test come out for `C[C@]12CCC(=O)C=C1CC[C@@H]1[C@@H]2CC[C@]2(C)C(=O)/C(=C/c3cccc(OCCN4CCOCC4)c3)C[C@@H]12` ?
Result: 0.0

Problem: How did this test come out for `C/C(=C\c1c[nH]c2ccccc12)[N+](=O)[O-]` ?
Result: 0.0

Problem: How did this test come out for `O=C(Cn1ccnc1[N+](=O)[O-])NCC(F)(F)C(F)(F)F` ?
Result: 0.0

Problem: How did this test come out for CC1(C)C2CCC13C(=O)C1OC3(C2)C2C(=O)c3c(O)ccc(O)c3C(=O)C12 (centres undefined) ?
Result: 0.0

Problem: How did this test come out for `O=C(/C=C\Sc1nccc(C(F)(F)F)n1)c1ccc(Br)cc1` ?
Result: 0.0

Problem: How did this test come out for `COc1cc(-c2nc3ccccc3s2)ccc1OCc1nc2n(n1)S(=O)(=O)c1ccccc1N2C` ?
Result: 0.0

Problem: How did this test come out for `COc1cccc2c1c1nc3cc(C)c(C)cc3nc1n2CCN(C)C` ?
Result: 0.0

Problem: How did this test come out for `O=C(Nc1ccc(Br)c(Cl)c1)c1cc(F)ccc1O` ?
Result: 1.0

Problem: How did this test come out for CC(C)=CCC/C(C)=C/CC/C(=C/COP(=O)(OCc1ccc([N+](=O)[O-])o1)N(C)CCCCCl)C(C)(C)C (centres undefined) ?
Result: 0.0

====

- Test system: NCI-H460 lung
- Procedure Details: NCI tumour cell line growth inhibition, 48 h
Readout Type: TGI

Some compounds with recorded TGI:
Problem: Which TGI is reported for this compound? `O=C(/C=C/c1cccs1)c1ccc(C(=O)/C=C/c2cccs2)cc1`
Result: > 100 µM

Problem: Which TGI is reported for this compound? `CCOC(=O)c1c(NC(=O)c2ccc(OC)cc2)sc2c1CCCC2`
Result: > 100 µM

Problem: Which TGI is reported for this compound? `CCC[CH2][Sn]([CH2]CCC)([S]C1=NCCS1)[S]C1=NCCS1`
Result: 3.26 µM

Problem: Which TGI is reported for this compound? COC(=O)C1C(=O)O[C@@H](c2ccc(OC)cc2OC)C1C(=O)OC (stereo partly specified)
Result: > 100 µM

Problem: Which TGI is reported for this compound? COC(=O)N/N=C(\C)C(CN1CCOCC1)C(c1ccccc1)c1cc2ccccc2oc1=O (stereo unspecified)
Result: > 100 µM

Now consider the entry below.
Problem: Which TGI is reported for this compound? Cc1c(Cl)ccc2c1NC(=O)C2(O)C1Cc2ccccc2C1=O (stereo unspecified)
Result: > 100 µM

====

- System: MCF7 breast
- Procedure Details: NCI tumour cell line growth inhibition, 48 h
Where a SMILES comes first, the peptide text is derived from it. The star is where a group is joined. OBn = c1ccc(CO*)cc1
Reported TGI values are given for each entry in this list.

Problem: Which TGI is reported for this compound? `CCOC(=O)c1c(NC(=O)c2ccc(OC)cc2)sc2c1CCCC2`
Result: > 100 µM

Problem: Which TGI is reported for this compound? NC(CCC(=O)OCc1ccccc1)C(=O)NC(CCC(=O)OCc1ccccc1)C(=O)O (centres undefined) (H-Glu(OBn)-Glu(OBn)-OH; configuration not given here)
Result: > 100 µM

Further cases:
Problem: Which TGI is reported for this compound? `COc1ccc(/C=C/[N+](=O)[O-])cc1`
Result: 5.83 µM

Problem: Which TGI is reported for this compound? O=C1NC(Cc2c[nH]c3ccccc23)C(=O)N2C(c3ccccc3)c3[nH]c4ccccc4c3C[C@@H]12 (some centres undefined)
Result: > 100 µM

Problem: Which TGI is reported for this compound? CC(Oc1ccc(Cl)cc1Cl)C(=O)NN1C(=O)CSC1c1ccc(Cl)cc1 (centres undefined)
Result: > 100 µM

Problem: Which TGI is reported for this compound? `C[C@H](CCC1=NCCN1)[C@H]1CC[C@H]2[C@@H]3CC[C@@H]4C[C@H](O)CC[C@]4(C)[C@H]3CC[C@]12C`
Result: > 57.4 µM

Problem: Which TGI is reported for this compound? `COc1ccc(Nc2ccnc(NCCCNc3ccnc4cc(Cl)ccc34)n2)cc1`
Result: 2.42 µM

Problem: Which TGI is reported for this compound? `COc1ccc(-n2cnc3c(NC(C)(C)C(=O)O)ncnc32)cc1`
Result: > 100 µM

Problem: Which TGI is reported for this compound? `CNC(=S)NNC1=NCCCCN1`
Result: > 100 µM
